test system: NL4-3ΔEnv-NanoLuc/MERS-CoV pseudovirus; assay: microbe, parasite or virus in culture; type: cell-based; details: Middle East respiratory syndrome-related coronavirus, Caco-2, read-out: MERS-CoV IC50
Readout: pIC50
Conceptually, pIC50 converts a concentration in mol/L into minus its log10.

Some molecules with known pIC50 results, for comparison:
Cc1cc2nc3s/c(=C/c4ccc(-c5cccc(C(=O)O)c5)o4)c(=O)n3c2cc1C    7.12
Cc1cc(C)c2nc3s/c(=C\c4ccc(-c5ccc(Cl)c(C(=O)O)c5)o4)c(=O)n3c2c1    6.79
Cc1ccc2nc3s/c(=C/c4coc(-c5ccc(Cl)c(C(=O)O)c5)c4)c(=O)n3c2c1    6.33

The recorded pIC50 for `O=C(O)c1cc(-c2ccc(/C=c3\sc4nc(=O)c5c6c(sc5n4c3=O)CCCC6)o2)ccc1Cl` is 6.37

The origin of these recorded values is paper PMC10141620.
